STUDY SYSTEM: δ-opioid receptor (Mus musculus)
Sequence (P32300 whole entry): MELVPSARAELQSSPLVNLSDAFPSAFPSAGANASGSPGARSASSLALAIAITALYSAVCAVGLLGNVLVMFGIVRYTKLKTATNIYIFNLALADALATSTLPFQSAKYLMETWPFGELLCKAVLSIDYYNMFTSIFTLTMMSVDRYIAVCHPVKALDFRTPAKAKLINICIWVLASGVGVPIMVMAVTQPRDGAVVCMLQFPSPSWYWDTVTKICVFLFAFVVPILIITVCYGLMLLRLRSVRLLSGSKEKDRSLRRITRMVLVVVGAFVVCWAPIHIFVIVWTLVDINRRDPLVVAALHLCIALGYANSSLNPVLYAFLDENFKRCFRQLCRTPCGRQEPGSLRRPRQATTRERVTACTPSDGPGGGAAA
TEST METHOD NOTES: [35S]GTPγS δ-opioid receptor functional assay (EC50, relative efficacy, % inhibition)
Assay type: biochemical
Design: NG108-15 cell membranes were purchased from Applied Cell Sciences (Rockville, Md.)
For each entry below, report its EC50 value.
Numbers only, in nM.

Example cases with answers are listed next.
COMPOUND: COc1ccc(Oc2ccc(NCC3CCCNC3)c(Oc3ccc(OC)cc3)c2)cc1 (racemic)
STUDY SYSTEM: δ-opioid receptor (Mus musculus)
EC50 (nM): 4070

COMPOUND: Clc1cccc(Cl)c1Oc1cc(-c2ccccc2)ccc1NC[C@@H]1CCCN1
STUDY SYSTEM: δ-opioid receptor (Mus musculus)
EC50 (nM): 1040

COMPOUND: COc1ccc(Oc2cc(-c3cncc(SC)c3)ccc2NC[C@@H]2C[C@@H](F)CN2)cc1
STUDY SYSTEM: δ-opioid receptor (Mus musculus)
EC50 (nM): 187

COMPOUND: COc1ccc(Oc2cc(-c3cncc(C)c3)ccc2NC[C@@H]2C[C@@H](F)CN2)cc1
STUDY SYSTEM: δ-opioid receptor (Mus musculus)
EC50 (nM): 165

// next item, EC50 requested
### Prompt Which EC50 reading was recorded for the compound `COc1ccc(Oc2cc(-c3cncc(F)c3)ccc2NC[C@@H]2CCCN2)cc1` ?
### Response 218
